// provenance: ChEMBL document CHEMBL3739343

biological target: Zinc metalloproteinase dpy-31 (Teladorsagia circumcincta, UniProt A0A0C5PRQ1); assay: Inhibition of recombinant Teladorsagia circumcincta DPY-31 astacin domain expressed in Escherichia coli using Suc-Ala-Ala-Ala-pNA as substrate preincubated for 3 hrs followed by substrate addition measured after 3 hrs by microplate reader assay
Sequence (A0A0C5PRQ1 whole entry, the tested form may be a part): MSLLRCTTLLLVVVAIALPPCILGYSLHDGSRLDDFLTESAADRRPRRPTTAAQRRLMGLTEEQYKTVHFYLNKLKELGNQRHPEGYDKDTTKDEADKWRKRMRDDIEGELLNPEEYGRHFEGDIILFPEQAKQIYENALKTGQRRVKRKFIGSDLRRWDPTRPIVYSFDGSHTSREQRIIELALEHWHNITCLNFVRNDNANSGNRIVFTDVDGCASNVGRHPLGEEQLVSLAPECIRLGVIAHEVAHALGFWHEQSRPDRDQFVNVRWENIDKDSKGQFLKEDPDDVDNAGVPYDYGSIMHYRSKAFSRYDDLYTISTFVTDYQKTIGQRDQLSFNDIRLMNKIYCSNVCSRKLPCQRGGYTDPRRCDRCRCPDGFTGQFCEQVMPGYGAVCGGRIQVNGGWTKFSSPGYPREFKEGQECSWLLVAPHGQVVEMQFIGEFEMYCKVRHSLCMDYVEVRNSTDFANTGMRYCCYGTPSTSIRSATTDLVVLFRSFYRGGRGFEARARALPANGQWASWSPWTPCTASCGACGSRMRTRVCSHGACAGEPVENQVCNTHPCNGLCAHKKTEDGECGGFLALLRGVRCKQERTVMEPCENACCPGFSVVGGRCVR
Where a SMILES comes first, the peptide text is derived from it.

{"MOLECULE": "C[C@H](NC(=O)[C@@H]1CCCN1C(=O)OCC1c2ccccc2-c2ccccc21)C(=O)N[C@@H](Cc1ccccc1)C(=O)NO (HELM PEPTIDE1{[O=C(OCC1c2ccccc2-c2ccccc21)[*:2]].P.A.F.[ON[*:1]]}$$$$V2.0)", "IC50, µM": 31.6}
{"MOLECULE": "O=C(C[C@@H](CCCC1CCCCC1)c1nc(-c2cc(C(=O)O)ccn2)no1)NO", "IC50, µM": 39.8}
{"MOLECULE": "CNC(=O)[C@@H](NC(=O)[C@H](CC(C)C)[C@H](O)C(=O)NO)C(C)(C)C", "IC50, µM": 79.4}
{"MOLECULE": "C[C@H](NC(=O)[C@@H]1CCCN1C(=O)OC(C)(C)C)C(=O)N[C@@H](Cc1ccccc1)C(=O)NO (HELM PEPTIDE1{[CC(C)(C)OC(=O)[*:2]].P.A.F.[ON[*:1]]}$$$$V2.0)", "IC50, µM": 25.1}

====

molecular target: Zinc metalloproteinase dpy-31 (Brugia malayi, UniProt A8Q2D1); test: Inhibition of recombinant Brugia malayi DPY-31 astacin domain expressed in Escherichia coli using Suc-Ala-Ala-Ala-pNA as substrate preincubated for 3 hrs followed by substrate addition measured after 3 hrs by microplate reader assay; details: read-out: IC50
Sequence (A8Q2D1 whole entry, the tested form may be a part): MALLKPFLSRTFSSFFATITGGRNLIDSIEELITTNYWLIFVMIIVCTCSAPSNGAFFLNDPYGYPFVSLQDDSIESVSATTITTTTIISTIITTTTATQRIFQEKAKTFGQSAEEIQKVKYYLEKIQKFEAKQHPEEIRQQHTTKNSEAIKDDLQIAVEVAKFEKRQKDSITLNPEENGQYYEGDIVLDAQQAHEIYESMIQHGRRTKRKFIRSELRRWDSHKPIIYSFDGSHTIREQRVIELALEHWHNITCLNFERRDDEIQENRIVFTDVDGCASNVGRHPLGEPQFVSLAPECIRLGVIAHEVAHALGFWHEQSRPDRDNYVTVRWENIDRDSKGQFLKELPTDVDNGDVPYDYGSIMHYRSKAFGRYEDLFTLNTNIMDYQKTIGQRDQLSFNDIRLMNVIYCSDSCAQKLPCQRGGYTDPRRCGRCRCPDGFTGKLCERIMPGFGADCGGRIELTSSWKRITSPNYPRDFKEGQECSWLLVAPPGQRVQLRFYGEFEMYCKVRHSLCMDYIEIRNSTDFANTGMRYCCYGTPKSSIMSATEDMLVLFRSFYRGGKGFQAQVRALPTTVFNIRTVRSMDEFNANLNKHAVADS
pIC50: −log10 of the molar value.
ATTRIBUTE MEASURED: pIC50

{"ITEM SMILES": "COC(=O)[C@@H]1CCCN1C(=O)[C@H](C)CP(=O)(O)[C@H](Cc1ccccc1)NC(=O)[C@H](CCCCN)NC(=O)[C@@H]1CCCN1C(=O)OCc1ccccc1", "ASSAYED SYSTEM": "Zinc metalloproteinase dpy-31 (Brugia malayi, UniProt A8Q2D1)", "RECORDED RESULT": "< 3.30"}
